System: A549
Experiment: Cytotoxicity against human A549 cells after 6 days by MTT assay
Assay type: functional
Conditions: A549, 144 h, read-out: ED50 (the source's name)
Reported log10 of EC50 values for a set of compounds
Remember, log10 of EC50, in mg/L.

Examples with answers:
Value lookup for log10 of EC50; key = C/C1=C\C[C@@H]2CCC3=C(C(=O)[C@@H]([C@@H](C)CC(=O)C1)[C@H]3O)C2(C)C [CESPITULARIN H]
0.97

Quick one: C=C1CC/C=C(\C)C[C@@H](O)C2=C(C)CC[C@@H](CC1)C2(C)C [CESPITULARIN C]
-0.92

Thanks! And C=C1CC[C@@H]2CCC3=C(C(=O)[C@@H](/C(C)=C/C(O)C1)[C@H]3O)C2(C)C (stereo partly drawn) [CESPITULARIN F] ?
1.21

Quick one: C=C1CC[C@@H]2CCC=C(C(=O)C/C(C)=C/C(O)C1)C2(C)C (stereo partly drawn) [CESPUTULARIN E]
-1.47

Same question for C=C1CC/C=C(\C)Cc2occ3c2C(C)(C)[C@H](CC1)CC3 [CESPITULARIN B] please.
0.90

Now look at this one.
log10 of EC50 for C=C1CC[C@@H]2CCc3coc(c3C2(C)C)C/C(C)=C/C(O)C1 (stereo partly drawn) [CESPITULARIN A] ?
0.93

Cited source: ChEMBL document CHEMBL1150653
